Test system: celery late blight organism Septoria apii
Assay Text: whole plant or invertebrate
Assay type: in vivo
Details: 336 h, read-out: Fungicidal Activity Control %, Celery L.B.
Exercise: state measured pest or weed control at 250 ppm for each of the compounds provided.
Hi, when you answer, please include the unit after the number. Thanks!

>>> df
                                   compound                           target_of_assay  result
0  c1ccc(-c2ccc(COC(c3ccccc3)c3cccnc3)cc2)cc1 (stereo not drawn)  celery late blight organism Septoria apii     47%
1  FC(F)(F)c1cccc(COC(c2ccccc2)c2cccnc2)c1 (stereo not drawn)  celery late blight organism Septoria apii     38%
2  FC(F)(F)c1cccc(COC(c2cccnc2)c2ccc(Cl)cc2Cl)c1 (stereo not drawn)  celery late blight organism Septoria apii     91%
3  Clc1ccc(COC(c2cccnc2)c2ccc(Cl)cc2Cl)c(Cl)c1 (stereo not drawn)  celery late blight organism Septoria apii     88%
4  c1ccc(COC(c2ccccc2)c2cccnc2)cc1 (stereo not drawn)  celery late blight organism Septoria apii     43%
5  C=C(Cl)COC(c1cccnc1)c1ccc(Cl)cc1Cl (stereo not drawn)  celery late blight organism Septoria apii     83%

Lab note: each compound below needs its pest or weed control at 250 ppm filled in.
1. OC(c1cccnc1)c1ccc(Cl)cc1Cl (stereo not drawn)
2. C=CCOC(c1cccnc1)c1ccc(Cl)cc1Cl (stereo not drawn)
3. CC(C)(C)c1ccc(COC(c2cccnc2)c2ccc(Cl)cc2Cl)cc1 (stereo not drawn)

[reply]
1. 31%
2. 48%
3. 78%

Source of measurements: patent US4407806A
